Origin of values: patent US7728034B2

assay: Estimated plasma concentration after i.p. dosing in the AGS study; assay type: in vivo; conditions: DBA, mouse, intraperitoneal, 1 mg/kg i.p., 60 minutes after dosing
measure name: concentration at 60 min

Recorded concentration at 60 min (molecule O=C(NCCCCc1ccccc1)c1cccs1 ): ~5 µM
